B1: TPR t1 (parent)
chain: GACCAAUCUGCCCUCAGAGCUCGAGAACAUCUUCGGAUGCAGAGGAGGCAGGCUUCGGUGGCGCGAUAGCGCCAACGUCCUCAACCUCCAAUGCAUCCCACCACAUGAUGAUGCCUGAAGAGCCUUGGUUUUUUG

# Variants of: B1
# run description: polymerase ribozyme fitness, log enrichment relative to wild type (log ratio); higher = more active; in vitro selection for triplet polymerase activity
# reported polymerase ribozyme fitness (log ratio); entries follow
Answer with the value's number alone.

Worked examples follow.
>>> measurement("C85G G117C")
-5.23
>>> measurement("U7A U9A C11A G42C G47U G61A A118U")
-4.21
>>> measurement("A6G C8U C98G")
-4.61
>>> measurement("A46G C124U")
0.675
>>> measurement("A41U G48U C76A")
-1.72
>>> measurement("U7A G63U G77C U92G")
-5.12
>>> measurement("A6C A18U G47U U125G")
-3.87
>>> measurement("G19C C49A A50U G69U C89U U106A C123G U132A U133G")
-1.46

Give me measured polymerase ribozyme fitness (log ratio), please, for this variant: C20G C56U A84G A111C C115G A121C U132A
-3.92

Output measured polymerase ribozyme fitness (log ratio) for this item: A2G A29G
-1.34

Using known records, supply polymerase ribozyme fitness (log ratio) for C53G G69U
-0.127

Fill in reported polymerase ribozyme fitness (log ratio) for this entry: A5U C70A C97U U125A
-2.48

For the variant A6U U106A U116A , report polymerase ribozyme fitness (log ratio).
-2.08
